- System: hiPSC-CMs (iCell-Cardiomyocytes^2)
- reported.conditions: 1 µM, 24h
Exercise: for every item that follows, state its recorded EAD, number of observations/total well numbers.

**Q:** Item under review: COc1nc(N)nc2c1ncn2[C@@H]1O[C@H](COP(=O)(N[C@@H](C)C(=O)OCC(C)(C)C)Oc2cccc3ccccc23)[C@@H](O)[C@@]1(C)O (stereo partly shown) [BMS-986094] . Reported EAD, number of observations/total well numbers?
**A:** 0/5

**Q:** Also, C#Cc1cccc(Nc2ncnc3cc(OCCOC)c(OCCOC)cc23)c1 [Erlotinib] please.
**A:** 0/5

**Q:** Also, Cc1cn(-c2cc(NC(=O)c3ccc(C)c(Nc4nccc(-c5cccnc5)n4)c3)cc(C(F)(F)F)c2)cn1 [Nilotinib] please.
**A:** 1/5

**Q:** Also, COc1cccc2c1C(=O)c1c(O)c3c(c(O)c1C2=O)C[C@@](O)(C(=O)CO)C[C@@H]3O[C@H]1C[C@H](N)[C@H](O)[C@H](C)O1 [Doxorubicin] please.
**A:** 0/5

**Q:** Also, CC(C)(Sc1cc(C(C)(C)C)c(O)c(C(C)(C)C)c1)Sc1cc(C(C)(C)C)c(O)c(C(C)(C)C)c1 [Probucol] please.
**A:** 0/4

**Q:** Also, N=C(N)c1ccc(OCCCCCOc2ccc(C(=N)N)cc2)cc1 [Pentamidine] please.
**A:** 0/6

**Q:** Also, COc1cc2c(Nc3ccc(Br)cc3F)ncnc2cc1OCC1CCN(C)CC1 [Vandetanib] please.
**A:** 1/5

---

- Test system: hiPSC-CMs (iCell-Cardiomyocytes^2)
- measurement.description: MEA impedance (cytotoxicity readout) in hiPSC-CMs
- reported.conditions: 3 µM, 72h
measured.quantity: Imp (impedance), % change from baseline (%)
Reply with just the number (in %).

**Q:** So what Imp (impedance), % change from baseline did COc1nc(N)nc2c1ncn2[C@@H]1O[C@H](COP(=O)(N[C@@H](C)C(=O)OCC(C)(C)C)Oc2cccc3ccccc23)[C@@H](O)[C@@]1(C)O (stereo partly shown) [BMS-986094] get with hiPSC-CMs (iCell-Cardiomyocytes^2)?
**A:** -19

**Q:** Also, COc1cc2c(Nc3ccc(Br)cc3F)ncnc2cc1OCC1CCN(C)CC1 [Vandetanib] please.
**A:** -44

**Q:** Also, N=C(N)c1ccc(OCCCCCOc2ccc(C(=N)N)cc2)cc1 [Pentamidine] please.
**A:** -28

**Q:** Also, CC(C)(Sc1cc(C(C)(C)C)c(O)c(C(C)(C)C)c1)Sc1cc(C(C)(C)C)c(O)c(C(C)(C)C)c1 [Probucol] please.
**A:** -10

---

- Tested on: hiPSC-CMs (iCell-Cardiomyocytes^2)
- reported.conditions: 0.1 µM, 24h
measured.quantity: Cessation of beating, number of observations/total well numbers

**Q:** Item under review: COc1cc2c(Nc3ccc(Br)cc3F)ncnc2cc1OCC1CCN(C)CC1 . Reported Cessation of beating, number of observations/total well numbers?
**A:** 0/5

**Q:** Also, N=C(N)c1ccc(OCCCCCOc2ccc(C(=N)N)cc2)cc1 please.
**A:** 0/6

**Q:** Also, COc1cccc2c1C(=O)c1c(O)c3c(c(O)c1C2=O)C[C@@](O)(C(=O)CO)C[C@@H]3O[C@H]1C[C@H](N)[C@H](O)[C@H](C)O1 please.
**A:** 0/5

**Q:** Also, Cc1cn(-c2cc(NC(=O)c3ccc(C)c(Nc4nccc(-c5cccnc5)n4)c3)cc(C(F)(F)F)c2)cn1 please.
**A:** 0/5
